biological target: Histamine H2 receptor (Cavia porcellus, UniProt P47747); assay: Antagonist activity at histamine H2 receptor in guinea pig right atrium assessed as inhibition of histamine-induced increase in heart rate; assay type: functional, tissue-based, Cardiac atrium; settings: read-out: pA2 (converted)
Sequence (P47747 whole entry): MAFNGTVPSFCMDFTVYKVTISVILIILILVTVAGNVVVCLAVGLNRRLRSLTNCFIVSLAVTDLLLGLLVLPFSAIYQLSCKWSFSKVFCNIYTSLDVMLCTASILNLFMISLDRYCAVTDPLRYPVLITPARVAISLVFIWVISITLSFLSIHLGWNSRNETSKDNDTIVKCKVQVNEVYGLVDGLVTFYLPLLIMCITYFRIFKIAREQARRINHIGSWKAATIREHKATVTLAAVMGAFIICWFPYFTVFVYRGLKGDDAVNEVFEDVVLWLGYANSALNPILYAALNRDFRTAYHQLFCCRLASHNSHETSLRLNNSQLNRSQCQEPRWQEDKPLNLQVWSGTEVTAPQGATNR
recorded-metric: Kb (nM)
One number for each entry, in nM.

State the recorded Kb for every item in the following list.
1. CCC(=O)/N=C(\N)NCCCc1c[nH]cn1
2. CC(C)C(=O)/N=C(\N)NCCCc1c[nH]cn1
3. CC(=O)NC(N)=NCCCc1cnc[nH]1
4. CCCC(=O)/N=C(\N)NCCCc1c[nH]cn1
5. N/C(=N\C(=O)CCc1c[nH]c2ccccc12)NCCCc1c[nH]cn1

Reply:
347
302
363
407
437

* * *

molecular target: Histamine H3 receptor (Homo sapiens); experiment: Agonist activity at human H3 receptor expressed in insect Sf9 cells co-expressing Gialpha2, Gbeta1gamma2 and RGS4 assessed as gamma[32P]GTP binding by liquid scintillation counting
recorded-metric: EC50 (nM)
One number for each entry, in nM.

compound	units	result-number
CN(CCC(=O)/N=C(\N)NCCCc1c[nH]cn1)C(=O)c1cc2ccccc2[nH]1	nM	11
CCCC(=O)/N=C(\N)NCCCc1c[nH]cn1	nM	1.58

Quick request: EC50 for each listed item, please.
1. N/C(=N\C(=O)CNC(=O)c1cc2ccccc2[nH]1)NCCCc1c[nH]cn1
2. CCC(=O)/N=C(\N)NCCCc1c[nH]cn1
3. CC(=O)NC(N)=NCCCc1cnc[nH]1
4. CC(C)C(=O)/N=C(\N)NCCCc1c[nH]cn1
5. CC(CC(=O)NC(N)=NCCCc1cnc[nH]1)c1ccccc1 (configuration not stated)

Reply:
1: 15.8; 2: 1.58; 3: 3.63; 4: 1.41; 5: 2.51

* * *

target: Histamine H3 receptor (Homo sapiens, UniProt Q9Y5N1); experiment: Intrinsic activity at human H3 receptor expressed in insect Sf9 cells co-expressing Gialpha2, Gbeta1gamma2 and RGS4 assessed as gamma[32P]GTP binding at 10 uM by liquid scintillation counting relative to histamine
Sequence (Q9Y5N1 whole entry): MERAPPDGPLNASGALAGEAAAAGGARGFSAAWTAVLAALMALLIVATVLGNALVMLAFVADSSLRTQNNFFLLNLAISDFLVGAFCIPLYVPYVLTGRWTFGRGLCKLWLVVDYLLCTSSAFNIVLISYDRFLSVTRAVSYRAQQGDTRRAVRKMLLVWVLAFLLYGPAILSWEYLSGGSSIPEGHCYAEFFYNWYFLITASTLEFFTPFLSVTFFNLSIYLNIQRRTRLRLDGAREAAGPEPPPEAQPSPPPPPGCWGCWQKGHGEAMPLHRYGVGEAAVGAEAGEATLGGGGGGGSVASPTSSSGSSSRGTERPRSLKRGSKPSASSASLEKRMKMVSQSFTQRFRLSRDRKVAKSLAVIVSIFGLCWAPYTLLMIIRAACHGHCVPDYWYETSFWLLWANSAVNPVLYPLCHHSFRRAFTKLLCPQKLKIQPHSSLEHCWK
Lab note: anything with Activity below 0.3 is marked 1.0; values at 0.3 or higher are marked 0.0.

compound	category
CC(CC(=O)/N=C(\N)NCCCc1c[nH]cn1)c1ccccc1 (stereo not drawn)	1.0
CC(C)C(=O)/N=C(\N)NCCCc1c[nH]cn1	1.0

Ask: Does N/C(=N\C(=O)Cc1c[nH]c2ccccc12)NCCCc1c[nH]cn1 have Activity strictly under 0.3?
Reply: 1.0

Ask: // same read-out, input: N/C(=N\C(=O)CNC(=O)c1cc2ccccc2[nH]1)NCCCc1c[nH]cn1
Reply: 0.0

Ask: Do the same for N/C(=N\C(=O)c1cc2ccccc2[nH]1)NCCCc1c[nH]cn1 please
Reply: 1.0

Ask: And CCC(=O)/N=C(\N)NCCCc1c[nH]cn1 ?
Reply: 0.0

Ask: What do you get for N/C(=N\C(=O)CCNC(=O)c1cc2ccccc2[nH]1)NCCCc1c[nH]cn1 ?
Reply: 1.0

* * *

biological target: Histamine H4 receptor (Homo sapiens, UniProt Q9H3N8); experiment: Agonist activity at human H4 receptor expressed in insect Sf9 cells co-expressing RGS19 fusion protein and Gialpha2, Gbeta1gamma2 assessed as gamma[32P]GTP binding by liquid scintillation counting
Sequence (Q9H3N8 whole entry, the tested form may be a part): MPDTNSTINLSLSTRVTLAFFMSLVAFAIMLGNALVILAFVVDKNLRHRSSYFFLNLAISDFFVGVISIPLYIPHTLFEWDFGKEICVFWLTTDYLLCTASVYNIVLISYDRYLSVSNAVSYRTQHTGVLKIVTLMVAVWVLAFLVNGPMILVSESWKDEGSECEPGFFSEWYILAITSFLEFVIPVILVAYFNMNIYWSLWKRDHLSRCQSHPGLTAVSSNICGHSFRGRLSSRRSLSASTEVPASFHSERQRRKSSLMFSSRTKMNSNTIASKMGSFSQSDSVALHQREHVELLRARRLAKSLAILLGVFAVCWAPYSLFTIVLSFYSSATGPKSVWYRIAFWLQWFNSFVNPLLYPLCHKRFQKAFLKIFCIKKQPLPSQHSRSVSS
Please respond with reported pEC50 for every item in the list.
Answers are plain numbers, as −log10 of the molar value.

Can you give me pEC50 for all of these, one by one?
1. N/C(=N\C(=O)CCc1c[nH]c2ccccc12)NCCCc1c[nH]cn1
2. CN(CCC(=O)/N=C(\N)NCCCc1c[nH]cn1)C(=O)c1cc2ccccc2[nH]1

Reply:
[8.15, 6.82]

These data points were gathered from ChEMBL document CHEMBL1153419.
